Cited source: ChEMBL document CHEMBL5528064

Listed compounds paired with reported bioavailability
Protocol summary: Oral bioavailability in rat at 3 mg/kg measured upto 24 hrs by LC-MS analysis
Type: ADME, organism-based
Condition info: in vivo
Numbers only here, please. The scale is %.

Solved cases (3 shown):
Chemical smiles | bioavailability, %
COC(=O)N[C@H](C(=O)N1CCC2(CC2)C[C@H]1C(=O)N[C@@H](CCC(C)(F)F)C(=O)C(=O)NC1CC1)C(C)(C)C | 60
CNC(=O)C(=O)[C@H](CCC(C)(F)F)NC(=O)[C@@H]1[C@H]2CCC[C@H]2CN1C(=O)[C@@H](NC(=O)OC)C(C)(C)C | 65
CNC(=O)C(=O)[C@H](CCC(C)(F)F)NC(=O)[C@@H]1C[C@H](C(F)(F)F)CCN1C(=O)[C@@H](NC(=O)OC)C(C)(C)C | 63

Problem: Would you mind telling me what bioavailability value was observed for COC(=O)N[C@H](C(=O)N1CC2(CCCCC2)C[C@H]1C(=O)N[C@@H](CCC(C)(F)F)C(=O)C(=O)NC1CC1)C(C)(C)C ?
Result: 26
